Let's go through some recorded IC50 values for cytosolic PLA2 (Homo sapiens, UniProt P47712) together.
measuredAttribute: IC50 (µM)

Data request: Entry O=c1[nH]c(-c2ccccc2)c(-c2ccc(S(=O)(=O)NCCC[n+]3ccccc3)cc2)o1 [Compound 0028] : reported IC50 = ?
Data returned: 103

(1) O=c1[nH]cc(C(c2ccccc2)c2ccccc2)o1 [Compound 0142]
(2) O=c1oc(-c2ccccc2)c(-c2ccccc2)n1Cc1ccc(F)cc1 [Compound 0048]
(3) O=c1oc(-c2ccccc2)cn1Cc1ccccc1 [Compound 0073, 3-Benzyl-5-phenyl-4-oxazolin-2-one]
Data request: Sort these compounds on IC50 so the largest reading comes first. Answer by naming the labels in the order asked.
Data returned: 1, 3, 2

----------
Target: cytosolic PLA2 (Homo sapiens, UniProt P47712)
Sequence (P47712 1-749): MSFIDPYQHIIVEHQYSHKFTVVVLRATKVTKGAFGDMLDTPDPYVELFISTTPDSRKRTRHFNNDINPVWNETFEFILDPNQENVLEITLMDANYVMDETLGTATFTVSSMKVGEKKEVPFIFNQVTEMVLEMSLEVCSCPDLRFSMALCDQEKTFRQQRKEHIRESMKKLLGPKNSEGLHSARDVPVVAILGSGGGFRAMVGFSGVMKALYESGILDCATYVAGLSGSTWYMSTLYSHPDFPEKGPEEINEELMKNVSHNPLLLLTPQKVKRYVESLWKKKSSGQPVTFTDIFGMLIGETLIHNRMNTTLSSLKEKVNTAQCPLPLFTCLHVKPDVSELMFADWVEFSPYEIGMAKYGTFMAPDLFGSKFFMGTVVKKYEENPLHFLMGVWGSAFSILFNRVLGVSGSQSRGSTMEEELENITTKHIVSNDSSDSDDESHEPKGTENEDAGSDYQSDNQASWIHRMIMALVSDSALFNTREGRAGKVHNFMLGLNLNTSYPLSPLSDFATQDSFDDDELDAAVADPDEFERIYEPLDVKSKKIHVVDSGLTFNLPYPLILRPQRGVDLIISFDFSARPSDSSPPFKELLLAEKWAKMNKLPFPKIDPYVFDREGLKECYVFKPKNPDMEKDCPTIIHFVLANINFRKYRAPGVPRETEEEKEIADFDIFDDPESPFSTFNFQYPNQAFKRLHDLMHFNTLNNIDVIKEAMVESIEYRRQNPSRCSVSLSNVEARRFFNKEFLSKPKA
pIC50: −log10 of the molar value.
measuredAttribute: pIC50

Data request: What is its pIC50 for cytosolic PLA2 (Homo sapiens, UniProt P47712)? Entry: CCCCn1c(-c2ccccc2)c(-c2ccccc2)oc1=O [Compound 0044]
Data returned: 4.27

(I) CC(C)=CCC[C@H](C)CCN1C(=O)O[C@@H](c2ccccc2)[C@@H]1c1ccccc1 [Compound 0347]
(II) CC(C)=CCC/C(C)=C/Cn1cc(-c2ccccc2)oc1=O [Compound 0095]
(III) CC(C)=CCC/C(C)=C/Cn1cc(C(c2ccccc2)c2ccccc2)oc1=O [Compound 0156]
(IV) Cn1c(-c2ccccc2)c(-c2ccccc2)oc1=O [Compound 0002]
Data request: Rank items: key pIC50, increasing. # respond with the labels, arranged in the requested order
Data returned: III, IV, II, I
(III: 3.92, IV: 4.17, II: 4.46, I: 5.13)

----------
Target: cytosolic PLA2 (Homo sapiens, UniProt P47712)
Sequence (P47712 1-749): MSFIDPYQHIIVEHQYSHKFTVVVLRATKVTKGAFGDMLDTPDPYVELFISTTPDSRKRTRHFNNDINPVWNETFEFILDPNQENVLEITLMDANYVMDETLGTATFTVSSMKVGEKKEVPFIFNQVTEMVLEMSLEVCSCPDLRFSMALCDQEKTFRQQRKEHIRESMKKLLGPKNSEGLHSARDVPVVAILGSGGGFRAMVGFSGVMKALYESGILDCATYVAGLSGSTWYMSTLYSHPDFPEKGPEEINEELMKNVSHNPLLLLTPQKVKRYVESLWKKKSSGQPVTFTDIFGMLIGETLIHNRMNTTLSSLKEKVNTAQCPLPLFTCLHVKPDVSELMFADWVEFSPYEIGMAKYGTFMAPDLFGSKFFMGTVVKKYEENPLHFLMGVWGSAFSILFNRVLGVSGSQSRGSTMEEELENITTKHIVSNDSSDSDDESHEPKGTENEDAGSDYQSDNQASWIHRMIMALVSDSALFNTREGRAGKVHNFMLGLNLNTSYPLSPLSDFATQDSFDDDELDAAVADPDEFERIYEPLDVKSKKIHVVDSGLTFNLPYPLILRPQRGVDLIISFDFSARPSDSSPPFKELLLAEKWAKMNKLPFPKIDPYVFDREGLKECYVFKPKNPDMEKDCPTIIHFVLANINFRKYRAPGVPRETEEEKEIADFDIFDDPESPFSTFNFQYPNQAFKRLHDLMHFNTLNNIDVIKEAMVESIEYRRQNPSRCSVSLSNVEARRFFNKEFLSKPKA
Test: Cytosolic PLA2 inhibition activity (sonicated liposomes with 1-palmitoyl-2-[14C]arachidonyl-sn-glycero-3-phosphocholine)
Format: biochemical
Conditions: compound at 2 μM; relative to enzyme control
measuredAttribute: inhibition at 2 µM (%)

Data request: Could you share which inhibition at 2 µM value was measured for O=c1oc(-c2ccccc2)c(-c2ccccc2)n1CCCc1ccccc1 ?
Data returned: 28

Data request: Fill in the blank: the reported inhibition at 2 µM of CC(C)=CCC/C(C)=C/Cn1cc(-c2ccccc2)oc1=O is ____.
Data returned: 26

Data request: Suppose we examine the compound CC(C)=CCC/C(C)=C\CN1C(=O)O[C@@H](c2ccccc2)[C@@H]1c1ccccc1 ; what inhibition at 2 µM value has been reported?
Data returned: 13

Data request: Name the recorded inhibition at 2 µM for O=c1oc(-c2ccccc2)c(-c2ccccc2)n1COCc1ccccc1 .
Data returned: 12

Data request: Form field: reported inhibition at 2 µM of O=c1oc(-c2ccccc2)c(-c2ccccc2)n1Cc1ccccc1F
Data returned: 17

Data request: I would be grateful if you could share the reported inhibition at 2 µM for O=C1O[C@H](c2ccccc2)[C@@H](c2ccccc2)N1Cc1cccc(F)c1 .
Data returned: 21

Data request: Quick check: inhibition at 2 µM of CC(C)=CCC/C(C)=C/CC/C(C)=C/CN1C(=O)O[C@H](c2ccccc2)[C@H]1c1ccccc1 ?
Data returned: 18

Data request: inhibition at 2 µM lookup needed for CC(C)=CCC/C(C)=C/CN1C(=O)O[C@@H](c2cccs2)[C@@H]1c1ccccc1 , thanks.
Data returned: 32

(a) O=c1oc(-c2ccccc2)c(-c2ccccc2)n1Cc1cccc(F)c1
(b) CC(C)=CCC[C@@H](C)CCN1C(=O)O[C@@H](c2ccccc2)[C@@H]1c1ccccc1
(c) O=c1oc(-c2ccccc2)c(-c2ccccc2)n1Cc1ccccn1
Data request: Arrange by inhibition at 2 µM, high to low. Use the labels to give the ranking in the order requested.
Data returned: b, a, c
(b: 47%, a: 24%, c: 11%)

----------
molecular target: cytosolic PLA2 (Homo sapiens); experiment: Cytosolic PLA2 inhibition activity (sonicated liposomes with 1-palmitoyl-2-[14C]arachidonyl-sn-glycero-3-phosphocholine); assay type: biochemical; conditions: compound at 2 μM; relative to enzyme control
measuredAttribute: inhibition at 2 µM (%)

Consider the following illustrative entries.
Data request: Fill blank: measured inhibition at 2 µM of the compound O=C1O[C@H](c2ccccc2)[C@@H](c2ccccc2)N1CCCCc1ccccc1 is ____.
Data returned: 23

Data request: What value of measured inhibition at 2 µM is listed for CC(C)=CCC/C(C)=C/CN1C(=O)OC[C@@H]1Cc1ccccc1 ?
Data returned: 22

Data request: Find the recorded inhibition at 2 µM belonging to O=c1oc(-c2ccccc2)c(-c2ccccc2)n1CCc1ccccc1 and report it.
Data returned: 21

Data request: Returns the measured inhibition at 2 µM for the input compound. Input: CC(C)=CCC/C(C)=C\CN1C(=O)O[C@H](c2ccccc2)[C@H]1c1ccccc1
Data returned: 21

Data request: Could you tell me which inhibition at 2 µM is on file for CC(C)=CCC/C(C)=C/CN1C(=O)O[C@H](c2ccccc2)[C@H]1c1ccccc1 ?
Data returned: 24

(A) CC(C)=CCC[C@H](C)CCN1C(=O)O[C@@H](c2ccccc2)[C@@H]1c1ccccc1
(B) CCCCn1c(-c2ccccc2)c(-c2ccccc2)oc1=O
Data request: Which record would sort first by descending inhibition at 2 µM, A or B ? API: response body contains the label of the selected item.
Data returned: A
(A: 33%, B: 19%)

----------
Target: cytosolic PLA2 (Homo sapiens, UniProt P47712)
Sequence (P47712 1-749): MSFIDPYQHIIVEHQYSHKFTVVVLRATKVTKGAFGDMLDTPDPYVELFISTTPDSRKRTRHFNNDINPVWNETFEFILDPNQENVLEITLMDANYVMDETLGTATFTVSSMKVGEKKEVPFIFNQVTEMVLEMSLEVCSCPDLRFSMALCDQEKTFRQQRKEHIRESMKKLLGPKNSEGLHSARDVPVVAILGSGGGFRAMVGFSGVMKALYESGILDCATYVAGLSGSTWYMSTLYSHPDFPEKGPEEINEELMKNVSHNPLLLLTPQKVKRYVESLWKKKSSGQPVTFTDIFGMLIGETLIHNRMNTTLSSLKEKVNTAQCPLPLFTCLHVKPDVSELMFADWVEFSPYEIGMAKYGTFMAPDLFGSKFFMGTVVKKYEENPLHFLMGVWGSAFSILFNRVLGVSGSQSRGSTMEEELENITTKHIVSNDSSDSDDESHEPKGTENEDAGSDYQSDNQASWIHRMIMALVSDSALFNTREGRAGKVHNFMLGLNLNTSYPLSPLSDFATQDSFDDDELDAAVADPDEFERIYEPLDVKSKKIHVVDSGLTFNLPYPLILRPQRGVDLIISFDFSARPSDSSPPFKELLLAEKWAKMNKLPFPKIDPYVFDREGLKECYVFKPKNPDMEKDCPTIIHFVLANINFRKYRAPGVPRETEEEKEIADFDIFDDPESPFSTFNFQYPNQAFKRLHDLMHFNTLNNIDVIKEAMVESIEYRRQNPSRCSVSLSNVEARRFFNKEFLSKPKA
Assay: Cytosolic PLA2 inhibition activity (sonicated liposomes with 1-palmitoyl-2-[14C]arachidonyl-sn-glycero-3-phosphocholine)
Type: biochemical
Conditions: compound at 2 μM; relative to enzyme control
measuredAttribute: inhibition at 2 µM (%)

Data request: Find the recorded inhibition at 2 µM belonging to O=C1O[C@@H](c2ccccc2)[C@H](c2ccccc2)N1CCCCc1ccccc1 and report it.
Data returned: 36

Data request: Which inhibition at 2 µM is listed for O=c1oc(-c2ccccc2)cn1C(c1ccccc1)c1ccccc1 ?
Data returned: 48

Data request: Quick check: inhibition at 2 µM of O=c1oc(-c2ccccc2)c(-c2ccccc2)n1Cc1ccccc1 ?
Data returned: 34

(I) CC(C)=CCC/C(C)=C/Cn1c(-c2ccccc2)c(-c2ccccc2)oc1=O
(II) CC(C)=CCn1c(-c2ccccc2)c(-c2ccccc2)oc1=O
Data request: Which of the two items, I and II , has the greater recorded inhibition at 2 µM? Respond with the label that goes with your answer.
Data returned: I
